The entries below come with measured Ki values attached.
- TEST TARGET: α3β2 nAChR subtype (Rattus norvegicus, UniProt P04757+P12390)
- Construct: expressed in transfected cells
- Sequence (P12390 25-500, one chain of several): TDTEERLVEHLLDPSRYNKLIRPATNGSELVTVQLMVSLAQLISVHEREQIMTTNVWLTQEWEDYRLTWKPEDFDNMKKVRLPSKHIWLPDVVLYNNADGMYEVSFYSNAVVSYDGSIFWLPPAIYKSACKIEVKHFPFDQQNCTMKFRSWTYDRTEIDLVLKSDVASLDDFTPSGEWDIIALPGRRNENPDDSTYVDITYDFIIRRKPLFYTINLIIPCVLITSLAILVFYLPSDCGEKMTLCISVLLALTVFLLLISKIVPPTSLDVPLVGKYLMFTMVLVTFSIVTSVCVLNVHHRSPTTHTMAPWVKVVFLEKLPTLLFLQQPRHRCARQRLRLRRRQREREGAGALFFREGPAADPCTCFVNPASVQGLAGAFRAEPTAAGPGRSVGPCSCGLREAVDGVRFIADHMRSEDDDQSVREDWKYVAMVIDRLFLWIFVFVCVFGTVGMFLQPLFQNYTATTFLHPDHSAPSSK
- EXPERIMENT NOTES: biochemical
- Assay type: binding
- DETAILS: Ki α3β2, Table 1; mean of 3 (1, 2: 3 to 6) independent measurements
- Text: In order to assess the steric and hydropathic effects of the C-5 substituents of the pyridine on the binding affinity and subtype-selectivity at neuronal nicotinic acetylcholine receptors. […] The binding affinity ratios for a ligand, calculated from its affinities at an α subunit paired with either the β2 osubunit or the β4 subunit, represents a measure of the selectivity of that ligand with regard to the β subunits.
Numbers only here, please. The scale is nM.

Answered cases to consult:
1) CN1CCC[C@H]1COc1cncc(C#CCO)c1 [Ligand 14]	7.64
2) CN1CCC[C@H]1COc1cncc(C#CCCCCCCCCO)c1 [Ligand 17]	52.1

Next compound, please.
// recorded Ki for C#Cc1cncc(OC[C@@H]2CCCN2C)c1 [Ligand 18] : 10.7

====

- TEST TARGET: α4β2 nAChR subtype (Rattus norvegicus, UniProt P09483+P12390)
- Construct: expressed in transfected cells
- Sequence (P12390 25-500): as the sequence (P12390 25-500, one chain of several) above
- Sequence (P09483 31-630): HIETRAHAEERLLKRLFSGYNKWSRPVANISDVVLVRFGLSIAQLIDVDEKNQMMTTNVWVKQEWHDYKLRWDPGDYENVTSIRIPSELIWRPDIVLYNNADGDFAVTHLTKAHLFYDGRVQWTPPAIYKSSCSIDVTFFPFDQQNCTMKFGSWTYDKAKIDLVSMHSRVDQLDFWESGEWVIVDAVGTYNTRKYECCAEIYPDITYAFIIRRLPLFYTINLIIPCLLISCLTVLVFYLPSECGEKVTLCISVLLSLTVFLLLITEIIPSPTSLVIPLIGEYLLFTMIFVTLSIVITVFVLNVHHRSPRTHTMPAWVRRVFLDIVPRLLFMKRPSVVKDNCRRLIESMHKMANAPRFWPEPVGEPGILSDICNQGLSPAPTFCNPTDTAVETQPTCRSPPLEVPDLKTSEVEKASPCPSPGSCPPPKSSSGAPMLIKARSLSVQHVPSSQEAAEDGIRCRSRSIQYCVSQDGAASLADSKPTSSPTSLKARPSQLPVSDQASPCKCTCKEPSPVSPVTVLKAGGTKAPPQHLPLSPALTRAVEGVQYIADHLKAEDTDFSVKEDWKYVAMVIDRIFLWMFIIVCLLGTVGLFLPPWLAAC
- EXPERIMENT NOTES: biochemical
- Assay type: binding
- DETAILS: read-out: Ki α4β2; Table 5; rat nAChR subtypes
READOUT LABEL: pKi
Recall that pKi is obtained by taking minus log10 of the concentration measured in molar.

pKi reported for this compound CN1CCC[C@H]1COc1cncc(C#CCNC(=O)OC(C)(C)C)c1 [Ligand 13] : 8.68

====

- TEST TARGET: α4β2 nAChR subtype (Rattus norvegicus, UniProt P09483+P12390)
- Construct: expressed in transfected cells
- EXPERIMENT NOTES: biochemical
- Type: binding
- DETAILS: Ki α4β2, Table 5; rat nAChR subtypes
READOUT LABEL: log10 of Ki (log10 of the value in nM)
Lab note - Ki converted to log10 from values in nM.

1. CCCCCC#Cc1ccc(C2CC3CCC2N3)cn1 (centres unmarked)	1.83

So for FCCCCC#Cc1cncc(OC[C@@H]2CCCN2)c1 , the logged log10 of Ki turned out to be -0.04

// log10 of Ki value for COC(=O)c1nc(Cl)ccc1C1CC2CCC1N2 (centres unmarked) : 3.90

Sure, the documented log10 of Ki for Clc1ccc2c(n1)CCC1C3CCC(N3)C21 (centres unmarked) [Ligand 37b] is 2.32

Measured log10 of Ki of Clc1ccc(C2CC3CCC2N3CCN2C3CCC2CC3)cn1 (centres unmarked) : 1.34

====

- TEST TARGET: α3β4 nAChR subtype (Rattus norvegicus, UniProt P04757+P12392)
- Construct: expressed in transfected cells
- Sequence (P04757 26-499): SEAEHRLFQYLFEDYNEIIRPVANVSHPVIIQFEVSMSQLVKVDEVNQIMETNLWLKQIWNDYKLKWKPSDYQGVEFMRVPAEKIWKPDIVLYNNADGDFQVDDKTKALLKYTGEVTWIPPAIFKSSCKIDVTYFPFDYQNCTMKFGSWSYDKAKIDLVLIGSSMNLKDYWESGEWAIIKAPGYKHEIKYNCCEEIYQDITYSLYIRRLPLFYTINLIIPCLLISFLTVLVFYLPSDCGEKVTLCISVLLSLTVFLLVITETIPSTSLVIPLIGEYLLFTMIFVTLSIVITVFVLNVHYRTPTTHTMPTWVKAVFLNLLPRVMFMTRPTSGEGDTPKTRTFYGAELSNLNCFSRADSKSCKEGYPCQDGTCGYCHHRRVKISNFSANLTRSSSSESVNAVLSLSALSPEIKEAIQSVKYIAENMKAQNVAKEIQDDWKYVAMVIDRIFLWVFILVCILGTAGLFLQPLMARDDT
- Sequence (P12392 21-495): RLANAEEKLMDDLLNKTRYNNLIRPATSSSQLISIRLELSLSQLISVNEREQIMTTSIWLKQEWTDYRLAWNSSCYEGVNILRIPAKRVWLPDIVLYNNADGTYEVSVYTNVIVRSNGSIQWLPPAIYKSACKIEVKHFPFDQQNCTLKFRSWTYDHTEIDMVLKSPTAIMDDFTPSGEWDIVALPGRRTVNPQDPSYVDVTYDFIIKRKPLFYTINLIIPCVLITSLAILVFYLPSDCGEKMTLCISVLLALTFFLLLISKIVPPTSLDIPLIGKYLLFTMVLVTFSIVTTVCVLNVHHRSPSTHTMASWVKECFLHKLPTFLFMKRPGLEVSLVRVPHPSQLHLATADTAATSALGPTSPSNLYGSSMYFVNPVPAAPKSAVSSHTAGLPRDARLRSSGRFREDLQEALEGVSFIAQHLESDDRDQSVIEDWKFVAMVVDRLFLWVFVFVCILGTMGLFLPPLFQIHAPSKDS
- EXPERIMENT NOTES: biochemical
- Assay type: binding
- DETAILS: Table 5; rat nAChR subtypes; read-out: Ki α3β4
pKi: −log10 of the molar value.
Label Fulfilled for high-side pKi (at or above 5) and Not fulfilled for low-side pKi (below it).

// known answers, use as guide
1) C#Cc1cncc(OC[C@@H]2CCCN2C)c1 [Ligand 18]	Fulfilled
2) CN1CCC[C@H]1COc1cncc(C#CCCCCCCCCO)c1 [Ligand 17]	Not fulfilled
3) CN1CCC[C@H]1COc1cncc(CCCCCCO)c1 [Ligand 19]	Not fulfilled
4) Clc1ccc(C2CC3CCC2N3CCCN2C3CCC2C(c2ccc(Cl)nc2)C3)cn1 (stereo not shown) [Ligand 59b, Propane-1,3-N,N′-bisepibatidine]	Fulfilled
5) CN1CCC[C@H]1COc1cncc(C#CC(C)(C)O)c1 [Ligand 15]	Not fulfilled

Can CN1CCC[C@H]1COc1cncc(C#CCO)c1 [Ligand 14] be said to have pKi at or above 5?
Not fulfilled

Please indicate if the recorded pKi for O=c1cccc2n1C[C@@H]1CNC[C@H]2C1 [Cytisine, reference compound] meets or exceeds 5.
Fulfilled

Test whether the molecule Clc1ccc2c(n1)CCC1C3CCC(N3)C21 (stereo not shown) [Ligand 37b] records pKi of 5 or higher.
Fulfilled

hey, is pKi for this one >= 5? CN1CCC[C@H]1COc1cncc(C#CCCCCO)c1 [Ligand 16]
Not fulfilled

====

- TEST TARGET: α3β2 nAChR subtype (Rattus norvegicus, UniProt P04757+P12390)
- Construct: expressed in transfected cells
- EXPERIMENT NOTES: biochemical
- Assay type: binding
- DETAILS: Ki α3β2
READOUT LABEL: pKi
Friendly reminder that pKi comes from taking -log10 of the concentration in mol/L.

The compound listed as O[C@H]1[C@H](c2ccc(Cl)nc2)[C@H]2CC[C@@H]1N2 (relative stereo) shows pKi equal to 8.14

====

- TEST TARGET: α2β4 nAChR subtype (Rattus norvegicus, UniProt P12389+P12392)
- Construct: expressed in transfected cells
- Sequence (P12389 28-511): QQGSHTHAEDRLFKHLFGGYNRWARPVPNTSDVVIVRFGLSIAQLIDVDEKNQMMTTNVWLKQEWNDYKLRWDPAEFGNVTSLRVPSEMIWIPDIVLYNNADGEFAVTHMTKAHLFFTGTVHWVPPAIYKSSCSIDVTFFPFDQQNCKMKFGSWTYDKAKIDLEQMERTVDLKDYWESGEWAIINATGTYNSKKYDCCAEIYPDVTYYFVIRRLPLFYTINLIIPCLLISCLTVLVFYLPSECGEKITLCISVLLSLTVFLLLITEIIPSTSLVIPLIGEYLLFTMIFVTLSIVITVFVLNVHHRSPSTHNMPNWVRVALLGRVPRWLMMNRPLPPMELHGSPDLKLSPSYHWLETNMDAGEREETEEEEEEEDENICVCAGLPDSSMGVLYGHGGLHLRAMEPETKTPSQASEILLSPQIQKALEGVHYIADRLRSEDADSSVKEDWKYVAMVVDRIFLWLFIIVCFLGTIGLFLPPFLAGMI
- Sequence (P12392 21-495): as the sequence (P12392 21-495) above
- EXPERIMENT NOTES: biochemical
- Assay type: binding
- DETAILS: Table 5; rat nAChR subtypes; read-out: Ki α2β4
READOUT LABEL: log10 of Ki (log10 of the value in µM)
Log scale reminder: Ki in µM, then log10 taken.

Would you please look over these solved cases?
1. CN1CCC[C@H]1COc1cncc(C#CCO)c1 [Ligand 14]	0.27
2. CN1CCC[C@H]1COc1cncc(CCCCCCO)c1 [Ligand 19]	0.06
3. C#Cc1cncc(OC[C@@H]2CCCN2C)c1 [Ligand 18]	-0.36
4. Clc1ccc(C2CC3CCC2N3CCCN2C3CCC2C(c2ccc(Cl)nc2)C3)cn1 (stereo not drawn) [Ligand 59b, Propane-1,3-N,N′-bisepibatidine]	-1.80
5. Clc1ccc2c(n1)CCC1C3CCC(N3)C21 (stereo not drawn) [Ligand 37b]	-1.49

Reported log10 of Ki for CN1CCC[C@H]1COc1cncc(C#CCCCCO)c1 [Ligand 16] was 0.51

What the record says about CCCCC#Cc1cncc(OC[C@@H]2CCCN2C)c1 [Ligand 12] : log10 of Ki is 0.24

So for CN1CCC[C@H]1COc1cncc(C#CC(C)(C)O)c1 [Ligand 15] , the logged log10 of Ki turned out to be 0.77

The molecule CN1CCC[C@H]1COc1cncc(C#CCCCCCCCCO)c1 [Ligand 17] showed log10 of Ki equal to 0.89

====

- TEST TARGET: α3β4 nAChR subtype (Rattus norvegicus, UniProt P04757+P12392)
- Construct: expressed in transfected cells
- EXPERIMENT NOTES: biochemical
- Format: binding
- DETAILS: Ki α3β4, Table 1; mean of 3 (1, 2: 3 to 6) independent measurements
READOUT LABEL: Ki (µM)
Kindly provide the numeric value in µM only, without the unit symbol.

// known answers, use as guide
1) CN1CCC[C@H]1COc1cncc(CCCCCCO)c1	20
2) C#Cc1cncc(OC[C@@H]2CCCN2C)c1	3.08
3) CN1CCC[C@H]1COc1cncc(C#CCCCCCCCCO)c1	62.7

Here is the next item to consider.
// recorded Ki for CN1CCC[C@H]1COc1cncc(C#CCO)c1 : 18.2

====

Listed next: entries and their corresponding Ki.
- TEST TARGET: receptors in rat forebrain (mainly α4β2) (Rattus norvegicus, UniProt P09483+P12390)
- Construct: from tissue; host or cells: rat forebrain homogenate
- Sequence (P09483 31-630): as the sequence (P09483 31-630) above
- Sequence (P12390 25-500): as the sequence (P12390 25-500, one chain of several) above
- EXPERIMENT NOTES: biochemical
- Format: binding
- DETAILS: Ki α4β2**, Table 6; **Forebrain mainly α4β2; [3H]-EB 0.099 nM, 0.091 nM; n = 1
Form entry: value (nM) — number only.

1. c1cncc(OC[C@@H]2CCN2)c1 [Ligand A-85380, reference compound]	0.248

Then this compound:
Here CN1CCC[C@H]1COc1cccnc1 [Ligand 8, reference compound] was tested on receptors in rat forebrain (mainly α4β2) (Rattus norvegicus, UniProt P09483+P12390), and its Ki came to 5.15

====

- TEST TARGET: receptors in rat forebrain (mainly α4β2) (Rattus norvegicus, UniProt P09483+P12390)
- Construct: from tissue; host or cells: rat forebrain homogenate
- Assay type: binding
- DETAILS: Table 6, [3H]-EB 0.099 nM, 0.091 nM, n = 1
pKi: −log10 of the molar value.
Binary classification by pKi, with 8 as an inclusive lower bound for T; all other cases are F.

1) CN1CCC[C@H]1COc1cncc(CCCCCCO)c1 [Ligand 19]	T
2) CN1CCC[C@H]1COc1cncc(C#CCCCCCCCCO)c1 [Ligand 17]	F
3) C#Cc1cncc(OC[C@@H]2CCCN2C)c1 [Ligand 18]	T
4) CN1CCC[C@H]1COc1cncc(C#CCO)c1 [Ligand 14]	T

In the following, a different molecule is considered.
Given CN1CCC[C@H]1COc1cncc(C#CCCCCO)c1 [Ligand 16] , state whether its pKi is at least 8.
T

Sourced from patent US8030300B2
